# test-description: Aqueous solubility of compound at pH 7.4
# Assay type: physicochemical
quantity-name: solubility

Given the compound CC[C@H](C)[C@@H](NC(=O)[C@@H](NC(=O)[C@H](CCC(=O)O)NC(=O)[C@H](Cc1ccccc1)NC(=O)[C@@H](CCN)NC(=O)[C@H](CCN)NC(=O)[C@H](CO)NC(=O)[C@@H](Cc1c[nH]c2ccccc12)NC(=O)[C@@H](CO)NC(=O)CNC(=O)[C@@H](CCN)NC(=O)[C@H](N)C(C)C)C(C)C)C(=O)N[C@@H](C)C(=O)O , what is its reported solubility? > 1 mg/mL

Check CCCCCCCC(=O)N[C@@H](C(=O)N[C@H](CCN)C(=O)NCC(=O)N[C@H](CO)C(=O)N[C@H](Cc1c[nH]c2ccccc12)C(=O)N[C@@H](CO)C(=O)N[C@@H](CCN)C(=O)N[C@H](CCN)C(=O)N[C@@H](Cc1ccccc1)C(=O)N[C@@H](CCC(=O)O)C(=O)N[C@H](C(=O)N[C@@H](C(=O)N[C@@H](C)C(=O)O)[C@@H](C)CC)C(C)C)C(C)C too. 30 mg/mL

Check CC[C@H](C)[C@@H](NC(=O)[C@@H](NC(=O)[C@H](CCC(=O)O)NC(=O)[C@H](Cc1ccccc1)NC(=O)[C@@H](CCN)NC(=O)[C@H](CCN)NC(=O)[C@H](CO)NC(=O)[C@@H](Cc1c[nH]c2ccccc12)NC(=O)[C@@H](CO)NC(=O)CNC(=O)[C@@H](CCN)NC(=O)[C@H](NC(=O)[C@H](C)N)C(C)C)C(C)C)C(=O)N[C@@H](C)C(=O)O too. > 1 mg/mL

Entry source: ChEMBL document CHEMBL5518181
